Origin of measurements: ChEMBL document CHEMBL1275299

# Assay Notes: Antiinflammatory activity in Swiss albino mouse macrophage assessed as inhibition of LPS-induced TNFalpha production at 1 ug/ml treated 30 mins before LPS challenge measured after 24 hrs by ELISA
# Type: functional
Listed here: items and their measured inhibition at 1 µg/mL.
Measured Parameter: inhibition at 1 µg/mL

COc1ccc([C@H]2Oc3c(OC)c(Br)c4ccc(=O)oc4c3O[C@@H]2CO)cc1OC | 44.8%
COc1cc([C@H]2Oc3c(OC)c([N+](=O)[O-])c4ccc(=O)oc4c3O[C@@H]2COC(C)=O)ccc1OC(C)=O | 70.5%
COc1ccc([C@H]2Oc3c(OC)c(Cl)c4ccc(=O)oc4c3O[C@@H]2CO)cc1OC | 50.2%
COc1cc([C@H]2Oc3c(OC)cc4ccc(=O)oc4c3O[C@@H]2COC(C)=O)ccc1O [DURANTIN A] | 73.3%
COc1cc([C@H]2Oc3c(OC)c([N+](=O)[O-])c4ccc(=O)oc4c3O[C@@H]2CO[N+](=O)[O-])c([N+](=O)[O-])cc1OC | 64.8%
COc1cc([C@H]2Oc3c(OC)c([N+](=O)[O-])c4ccc(=O)oc4c3O[C@@H]2CO)c([N+](=O)[O-])cc1OC | 76.6%
O=C(O)Cc1ccccc1Nc1c(Cl)cccc1Cl [DICLOFENAC SODIUM] | 46.5%
COc1cc([C@H]2Oc3c(OC)c(Br)c4ccc(=O)oc4c3O[C@@H]2COC(C)=O)ccc1O | 54.5%

###

# Assay Notes: Antiinflammatory activity in Swiss albino mouse macrophage assessed as inhibition of LPS-induced TNFalpha production at 10 ug/ml treated 30 mins before LPS challenge measured after 24 hrs by ELISA
# Format: functional
Measured Parameter: inhibition at 10 µg/mL (%)

COc1cc([C@H]2Oc3c(OC)c(Br)c4ccc(=O)oc4c3O[C@@H]2COC(C)=O)ccc1O | 54.2
COc1cc([C@H]2Oc3c(OC)c([N+](=O)[O-])c4ccc(=O)oc4c3O[C@@H]2CO[N+](=O)[O-])c([N+](=O)[O-])cc1OC | 60.6
COc1ccc([C@H]2Oc3c(OC)c(Br)c4ccc(=O)oc4c3O[C@@H]2CO)cc1OC | 42
COc1cc([C@H]2Oc3c(OC)c([N+](=O)[O-])c4ccc(=O)oc4c3O[C@@H]2CO)c([N+](=O)[O-])cc1OC | 78

###

# Assay Notes: Antiinflammatory activity in Swiss albino mouse macrophage assessed as inhibition of LPS-induced TNFalpha production at 10 ug/ml treated 30 mins before LPS challenge measured after 24 hrs by ELISA
# Type: functional
Consider the following compounds and their measured inhibition at 10 µg/mL readings.
Measured Parameter: inhibition at 10 µg/mL (%)

COc1cc([C@H]2Oc3c(OC)cc4ccc(=O)oc4c3O[C@@H]2COC(C)=O)ccc1O [DURANTIN A] | 76.2
COc1cc([C@H]2Oc3c(OC)c([N+](=O)[O-])c4ccc(=O)oc4c3O[C@@H]2COC(C)=O)ccc1OC(C)=O | 67.8
COc1ccc([C@H]2Oc3c(OC)c(Cl)c4ccc(=O)oc4c3O[C@@H]2CO)cc1OC | 49.6
